Recorded measurements of Light/Dark, Dox 0 ng/mL, one per entry
- Target Or Test System: Cry2 PHR (L348F)-p65AD-NLSx2 fusion construct as released from the TetR (I194T, 1-206)-CIB1 (-NLS)-T2A-Cry2 PHR (L348F)-p65AD-NLSx2 fusion construct
- Sequence (Q96524 other isoform, or with tags, fused parts or gaps L348F I194T L348F L348F I194T L348F): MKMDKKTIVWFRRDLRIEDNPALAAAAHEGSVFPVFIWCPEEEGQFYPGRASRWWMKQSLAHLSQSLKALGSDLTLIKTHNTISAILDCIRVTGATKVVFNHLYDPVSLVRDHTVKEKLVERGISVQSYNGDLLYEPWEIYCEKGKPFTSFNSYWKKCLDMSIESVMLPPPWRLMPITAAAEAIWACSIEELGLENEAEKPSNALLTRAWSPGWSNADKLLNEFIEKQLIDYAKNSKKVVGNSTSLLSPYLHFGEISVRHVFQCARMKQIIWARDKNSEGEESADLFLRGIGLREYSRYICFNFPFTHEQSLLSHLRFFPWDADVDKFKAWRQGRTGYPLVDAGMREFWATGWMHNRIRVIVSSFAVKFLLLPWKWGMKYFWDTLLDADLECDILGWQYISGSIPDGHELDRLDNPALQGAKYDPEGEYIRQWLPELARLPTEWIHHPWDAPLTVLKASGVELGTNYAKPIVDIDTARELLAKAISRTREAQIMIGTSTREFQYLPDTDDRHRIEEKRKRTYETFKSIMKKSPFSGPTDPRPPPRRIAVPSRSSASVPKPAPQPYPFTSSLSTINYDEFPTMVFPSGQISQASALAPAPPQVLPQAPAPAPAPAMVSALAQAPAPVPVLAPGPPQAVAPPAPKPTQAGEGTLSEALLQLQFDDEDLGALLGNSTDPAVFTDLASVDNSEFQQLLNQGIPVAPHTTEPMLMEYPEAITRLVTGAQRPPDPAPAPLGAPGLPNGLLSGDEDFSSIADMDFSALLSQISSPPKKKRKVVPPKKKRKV
- Assay Notes: cell-based or functional assay
Provide a numeric answer; units are not to be included.

Reference set, count: 2
Binder: rTetR (I194T, V10 mutation, 1-206)-CIB1 (-NLS) from the T2A construct (protein, part only; not given: Leftover T2A residues, part only) chain, part: MARLDKSKVINSALELLNGVGIEGLTTRKLAQKLGVEQPTLYWHVKNKRALLDALPIEMLDRHHTHSCPLEGESWQDFLRNNAKSYRCALLSHRDGAKVHLGTRPTEKQYETLENQLAFLCQQGFSLENALYALSAVGHFTLGCVLEEQEHQVAKEERETPTTDSMPPLLKQAIELFDRQGAEPAFLFGLELITCGLEKQLKCESGSPKKKHMEFNGAIGGDLLLNFPDMSVLERQRAHLKYLNPTFDSPLAGFFADSSMITGGEMDSYLSTAGLNLPMMYGETTVEGDSRLSISPETTLGTGNFKAAKFDTETKDCNEAAKKMTMNRDDLVEEGEEEKSKITEQNNGSTKSIKKMKHKAKKEENNFSNDSSKVTKELEKTDYI
Light/Dark, Dox 0 ng/mL: 1.1
--
Binder: rTetR (I194T, V16 mutation, 1-206)-CIB1 (-NLS) from the T2A construct (protein, part only; not given: Leftover T2A residues, part only) chain, part: MARLDKSKIINSALELLNGVGIEGLTTRKLAQKLGVEQPTLYWHVKNKRALLDALPIEMLDRHHTHSCPLEGESWQDFLRNNAKSYRCALLSHRDGAKVHLGTRPTEKQYETLENQLAFLCQQGFSLENALYALSAVGHFTLGCVLEEQEHQVAKEERETPTTDSMPPLLKQAIELFDRQGAEPAFLFGLELITCGLEKQLKCESGSPKKKHMEFNGAIGGDLLLNFPDMSVLERQRAHLKYLNPTFDSPLAGFFADSSMITGGEMDSYLSTAGLNLPMMYGETTVEGDSRLSISPETTLGTGNFKAAKFDTETKDCNEAAKKMTMNRDDLVEEGEEEKSKITEQNNGSTKSIKKMKHKAKKEENNFSNDSSKVTKELEKTDYI
Light/Dark, Dox 0 ng/mL: 1.6

Now, please, on to the next binder.
stdin: Recorded Light/Dark, Dox 0 ng/mL for rTetR (I194T, M2 mutation, 1-206)-CIB1 (-NLS) from the T2A construct (protein, part only; not given: Leftover T2A residues, part only) chain, part: MARLDKSKVINGALELLNGVGIEGLTTRKLAQKLGVEQPTLYWHVKNKRALLDALPIEMLDRHHTHFCPLEGESWQDFLRNNAKSFRCALLSHRDGAKVHLGTRPTEKQYETLENQLAFLCQQGFSLENALYALSAVGHFTLGCVLEEQEHQVAKEERETPTTDSMPPLLRQAIELFDRQGAEPAFLFGLELITCGLEKQLKCESGSPKKKHMEFNGAIGGDLLLNFPDMSVLERQRAHLKYLNPTFDSPLAGFFADSSMITGGEMDSYLSTAGLNLPMMYGETTVEGDSRLSISPETTLGTGNFKAAKFDTETKDCNEAAKKMTMNRDDLVEEGEEEKSKITEQNNGSTKSIKKMKHKAKKEENNFSNDSSKVTKELEKTDYI , please?
stdout: 1.1
